Tested on: MCF7
Test: Cytotoxicity against human MCF7 cells after 7 days by MTT assay
Format: functional
Conditions: MCF7, 168 h, read-out: ED50 (the source's name)
Labelling: EC50 reported below 0.2 µg/mL becomes MET; at or above becomes NOT MET.

Dear colleague, could you confirm whether EC50 of CCCCCCCCCCCC[C@@H](O)[C@H]1CC[C@H]([C@H](O)CC[C@H](O)C[C@H](O)CCCCC[C@@H](O)CC2=C[C@H](C)OC2=O)O1 [MURICATOCIN A] falls below 0.2 µg/mL? Thanks. MET

Could you please tell me whether EC50 recorded for CCCCCCCCCCCC[C@H](O)[C@H]1CC[C@H]([C@H](O)CC[C@H]2C[C@@H](CCCCC[C@@H](O)CC3=C[C@H](C)OC3=O)OC(C)(C)O2)O1 is less than 0.2 µg/mL? NOT MET

Please let me know if CCCCCCCCCCCC[C@H](O)[C@H]1CC[C@H]([C@H](O)CC[C@H](O)C[C@H](O)CCCCC[C@@H](O)CC2=C[C@H](C)OC2=O)O1 [MURICATOCIN B] shows EC50 below 0.2 µg/mL. MET

Here's an entry: COc1cccc2c1C(=O)c1c(O)c3c(c(O)c1C2=O)C[C@@](O)(C(=O)CO)C[C@@H]3O[C@H]1C[C@H](N)[C@H](O)[C@H](C)O1 [DOXORUBICIN] . Is its EC50 below 0.2 µg/mL? MET

Criterion: EC50 strictly below 0.2 µg/mL. Is it met by CCCCCCCCCCCC[C@@H](O)[C@H]1CC[C@H]([C@H](O)CC[C@H]2C[C@@H](CCCCC[C@@H](O)CC3=C[C@H](C)OC3=O)OC(C)(C)O2)O1 ? MET

----------
Test: Toxicity against brine shrimp
Format: organism-based
Conditions: artemia, in vivo
READOUT LABEL: LC50 (µg/mL)
Output spec: scalar in µg/mL, unitless text.

Entry CCCCCCCCCCCC[C@@H](O)[C@H]1CC[C@H]([C@H](O)CC[C@H]2C[C@@H](CCCCC[C@@H](O)CC3=C[C@H](C)OC3=O)OC(C)(C)O2)O1 , LC50 reported as 0.206

The reported value for CCCCCCCCCCCC[C@H](O)[C@H]1CC[C@H]([C@H](O)CC[C@H](O)C[C@H](O)CCCCC[C@@H](O)CC2=C[C@H](C)OC2=O)O1 in terms of LC50 is 0.557

The compound listed as CCCCCCCCCCCC[C@@H](O)[C@H]1CC[C@H]([C@H](O)CC[C@H](O)C[C@H](O)CCCCC[C@@H](O)CC2=C[C@H](C)OC2=O)O1 has a reported LC50 of 0.699

Briefly, LC50 measured for CCCCCCCCCCCC[C@H](O)[C@H]1CC[C@H]([C@H](O)CC[C@H]2C[C@@H](CCCCC[C@@H](O)CC3=C[C@H](C)OC3=O)OC(C)(C)O2)O1 : 0.266
